- target desc: T1, huNav1.7α+β1-β2-β3 (human, UniProt Q15858 1-1988; Q07699 19-218; O60939 30-215; Q9NY72 23-215)
- T1 construct: 5N11S variant; also called huNav1.7-beta1-beta2-beta3; huNav1.7α+Navβ1-Navβ2-Navβ3
- assay overview: binding FACS, HEK FlpIn cells

# binder, unit text, EC50
data = [
    ("F0103265A11 (parental)-FLAG-HIS6 (VHH, also called F01033265A11) VHH: EVQLVESGGGLVQPGGSLRLSCAASGMLFNANTQGWYRQAPGKQRELVAFIFSGGYTNYVDSVKGRFTISRDNAKRTMYLQMNSLKPEDSAIYYCSLSRYLGQGTLVTVSS", "nM", 37),
    ("F0103387G05 (parental)-FLAG-HIS6 (VHH) VHH: EVQLVESGGGLVQAGGSLRLSCDASGRILRIGYMRWHRQGAGKQREFVARITDDSATDYADSVKGRFTISRDNAKNTVYLQMNNLNPEDTAVYYCEALVTASVRGGSIHSGTYWGRGTLVTVSS", "nM", 3.1),
    ("F0103275B05 (parental)-FLAG-HIS6 (VHH, also called F01033275B05) VHH: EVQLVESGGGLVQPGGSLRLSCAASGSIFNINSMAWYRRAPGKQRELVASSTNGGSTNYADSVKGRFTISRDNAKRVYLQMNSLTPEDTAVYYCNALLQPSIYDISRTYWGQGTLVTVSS", "nM", 37),
]
